- test details: Solubility study of dapivirine
- Type: physicochemical
- test parameters: 10 mg/mL liposome dispersion in pH 7.6 phosphate buffer, 37 °C, aqueous with cosolvent or surfactant or cyclodextrin, thermodynamic from solid; 10 mg/mL pH 7.6 liposome dispersion
recorded endpoint: solubility (µM)
Your answer is read as µM, so omit the unit and give the number.

Q: Record request: solubility value, item "Cc1cc(C)c(Nc2ccnc(Nc3ccc(C#N)cc3)n2)c(C)c1"
Result: 165

====

- test details: Solubility study of dapivirine
- Format: physicochemical
- test parameters: 50:50 v/v i-prOH:water, 37 °C, aqueous with cosolvent or surfactant or cyclodextrin, thermodynamic from solid; 50:50 i-prOH:water
recorded endpoint: solubility (mM)
Your answer is read as mM, so omit the unit and give the number.

Q: Record request: solubility value, item Cc1cc(C)c(Nc2ccnc(Nc3ccc(C#N)cc3)n2)c(C)c1 [dapivirine]
Result: 3.31
